Source listed as patent US20180112008A1.

# target or test system: T1, non-glycosylated 15-mer MUC16 peptide (human)
# T1 construct: Same peptide as the GlcNAc2-15-mer without the glycan; also called unglycosylated 15-mer
# T1 peptide: CGTQLQNFTLDRSSV
# protocol text: ELISA 12/24/13 (sups from time of freezing), dilution 400, column 15
measurement label: ELISA signal
Give the value as a plain number.

Sample answers from the record:
>  <binder>
16C5.C1 (antibody, V domains shown, Mouse monoclonal from a hybridoma) VH: QVTLKESGPGILQPSQTLSLTCSFSGFSLNTLGMGVGWIRQPSGKGLEWLAHIWWDDDKYYYPALKSRLTISRDTSKNQVFLKIANVDTADTATYYCARIGTAQATDALDYWGQGTSVTVSS VL: ELDMTQTPPSLSASVGETVRIRCLASEDIYSGISWYQQKPGKPPTLLIYGASNLESGVPPRFSGSGSGTDYTLTIGGVQAEDAATYYCLGGYSYSSTLTFGAGTNVEIK

>  <ELISA signal>
0.62

$$$$
>  <binder>
18C6.D12 (antibody, V domains shown, Mouse monoclonal from a hybridoma; also called MUC16 Glycosylation Antibody 18C6) VH: QVTLKESGPGILQPSQTLSLTCSFSGFSLSTVGMGVGWSRQPSGKGLEWLAHIWWDDEDKYYNPALKSRLTISKDTSKNQVFLKIANVDTADTATYYCTRIGTAQATDALDYWGQGTSVTVSS VL: DIVMTQAAPSVPVTPGESVSISCRSSKSLLHSNGNTYLYWFLQRPGQSPQRLIYYMSNLASGVPDRFSGRGSGTDFTLRISRVEAEDVGVYYCMQSLEYPLTFGGGTKLEIK

>  <ELISA signal>
0.44

$$$$
>  <binder>
7B12.B3 (antibody, V domains shown, Mouse monoclonal from a hybridoma; also called MUC16 Glycosylation Antibody 7B12) VH: QVTLKESGPGILQPSQTLSLTCSFSGFSLSTVGMGVGWSRQPSGKGLEWLAHIWWDDEDKYYNPALKSRLTISKDTSKNQVFLKIANVDTADSATYYCTRIGTAQATDALDYWGQGTSVTVSS VL: DIVMTQAAPSVSVTPGESVSISCRSSKSLRKSNGNTYLYWFLQRPGQSPQRLIYYMSNLASGVPDRFSGRGSGTDFTLRISRVEAEDVGVYYCMQSLEYPLTFGGGTKLKIK

>  <ELISA signal>
0.44

$$$$

Next binder, ELISA signal to be filled in.
If you can, please state the reported ELISA signal value of 19C11.H6 (antibody, V domains shown, Mouse monoclonal from a hybridoma; Used as 89Zr-DFO-labelled antibody in the internalization assay; also called MUC16 Glycosylation Antibody 19C11) VH: QVNLKESGPGKLQPSQTLSLTCSFSGFSLSTLGMGVGWIRQSSGKGLEWLAHIWWDDDKYYNPALKSRLTISRATSKNQVFLKIVNVGTADTATYYCARIGTAQATDALDYWGQGTSVTVSS VL: DIVMTQAAPSIPVTPGESVSISCRSSKSLLHSNGNTYLYWFLQRPGQSPQRLIYYMSNLASGVPDRFSGRGSGTDFTLKISRVEAGDVGVYYCMQGLEHPLTFGGGTKLEIK .
0.3
